Target under test: Platelet-activating factor receptor (Oryctolagus cuniculus)
Assay overview: In vitro ability to displace [3H]PAF from PAF receptor in rabbit platelet membranes
Measure: Ki (nM)

> print(dat)
                  compound.structure.string  reported.measurement
1  CCCCCCCCCCCCCCCCOC[C@H]1C[C@@H](COC(=O)N(Cc2cccc[n+]2CC)C(C)=O)O1                    21
2  CCCCCCCCCCCCCCCCCCNC(=O)OC[C@H]1C[C@H](COC(=O)N(Cc2cccc[n+]2CC)C(=O)c2ccc(OC)cc2)S1                    34
3  CCCCCCCCCCCCCCCCCCNC(=O)OC[C@H]1C[C@@H](COC(=O)N(Cc2cccc[n+]2CC)C(C)=O)S1                   9.8
4  CCCCCCCCCCCCCCCCCCNC(=O)OC[C@H]1C[C@H](COC(=O)N(Cc2cccc[n+]2CC)C(C)=O)S1                   4.3
5  CCCCCCCCCCCCCCCCCCNC(=O)OC[C@H]1C[C@H](COC(=O)N(Cc2cccc[n+]2CC)C(C)=O)N1C(C)=O                    35
6  CCCCCCCCCCCCCCCCOC[C@H]1C[C@H](COC(=O)N(Cc2cccc[n+]2CC)C(C)=O)S1                    20
7  CCCCCCCCCCCCCCCCCCNC(=O)OC[C@H]1C[C@H](COC(=O)N(Cc2cccc[n+]2CC)C(C)=O)C1                   4.3
8  CCCCCCCCCCCCCCCCNC(=O)OC[C@@H]1C[C@@H](COC(=O)N(Cc2cccc[n+]2CC)C(C)=O)S1                   9.8
9  CCCCCCCCCCCCCCCCOC[C@@H]1C[C@@H](COC(=O)N(Cc2cccc[n+]2CC)C(C)=O)O1                    15

====

Target under test: Platelet-activating factor receptor (Oryctolagus cuniculus)
Assay overview: In vitro inhibitory activity against PAF-induced aggregation of rabbit platelets
Measure: IC50 (nM)

> print(dat)
                  compound.structure.string  reported.measurement
1  CCCCCCCCCCCCCCCCCCNC(=O)OC[C@H]1C[C@H](COC(=O)N(Cc2cccc[n+]2CC)C(=O)c2ccc(OC)cc2)S1                    84
2  CCCCCCCCCCCCCCCCOC[C@H]1C[C@H](COC(=O)N(Cc2cccc[n+]2CC)C(C)=O)S1                    52
3  CCCCCCCCCCCCCCCCOC[C@@H]1C[C@@H](COC(=O)N(Cc2cccc[n+]2CC)C(C)=O)O1                    57
4  CCCCCCCCCCCCCCCCCCNC(=O)OC[C@H]1C[C@H](COC(=O)N(Cc2cccc[n+]2CC)C(C)=O)S1                    57
5  CCCCCCCCCCCCCCCCCCNC(=O)OC[C@H]1C[C@@H](COC(=O)N(Cc2cccc[n+]2CC)C(C)=O)S1                    61
6  CCCCCCCCCCCCCCCCOC[C@H]1C[C@@H](COC(=O)N(Cc2cccc[n+]2CC)C(C)=O)O1                    95
